The reported numbers originate from PubChem BioAssay AID2060490.

system: 885512-296-R-J2-PDC complex spheroid viability; experiment: Anticancer human tumor 885512-296-R-J2-PDC patient-derived breast carcinoma cell line growth inhibition [GQUAD]; settings: second compound 0.0316 µM; first compound 3.16 µM; active means viability on the fitted dose curve at most 10% of control; inactive means the rest
Returns: one label drawn from active, inactive

Completed entries (count: 5):
CC1COCCN1c1cc(-c2ccnn2C)c2ccnc(-c3ccn[nH]3)c2n1 (stereo unspecified) + CN(C)c1ccc(Nc2c3ccc(NC(=O)CCN4CCCC4)cc3nc3cc(NC(=O)CCN4CCCC4)ccc23)cc1 = active
Nc1ccn(C2OC(CO)C(O)C2(F)F)c(=O)n1 (stereo unspecified) + CN(C)c1ccc(Nc2c3ccc(NC(=O)CCN4CCCC4)cc3nc3cc(NC(=O)CCN4CCCC4)ccc23)cc1 = active
CCCS(=O)(=O)Nc1ccc(F)c(C(=O)c2c[nH]c3ncc(-c4ccc(Cl)cc4)cc23)c1F + Cc1cnc(CNC(=O)c2c(=O)c3ccc(N4CCCN(C)CC4)nc3n3c2sc2ccccc23)cn1 = inactive
O=c1[nH]cc(F)c(=O)[nH]1 + Cc1[nH]c2ccc(F)cc2c1-c1nc2c3cccnc3c3ncccc3c2[nH]1 = inactive
COc1ncnc(C2CC2)c1-c1ncc2cnn(Cc3ccc(-c4nc(C(F)(F)F)cn4C(C)C)cc3)c2n1 + Cc1cnc(CNC(=O)c2c(=O)c3ccc(N4CCCN(C)CC4)nc3n3c2sc2ccccc23)cn1 = inactive

Next, consider the following molecule.
Hi, do you know how O=C(NO)c1cnc(N2CCN(S(=O)(=O)c3ccc4ccccc4c3)CC2)nc1 + Cc1[nH]c2ccc(F)cc2c1-c1nc2c3cccnc3c3ncccc3c2[nH]1 came out in this test?
active

----------
The reader will find reported viability, T/C values listed item by item below.
system: 885512-296-R-J2-PDC complex spheroid viability; assay: Anticancer human tumor 885512-296-R-J2-PDC cell line growth inhibition [GQUAD]; conditions: second compound 0.0316 µM; first compound 3.16 µM; hits give low values
The reply should contain only the number, in %.

In the examples that follow, each entry is paired with its recorded viability, T/C.
CCCS(=O)(=O)Nc1ccc(F)c(C(=O)c2c[nH]c3ncc(-c4ccc(Cl)cc4)cc23)c1F + CN(C)c1ccc(Nc2c3ccc(NC(=O)CCN4CCCC4)cc3nc3cc(NC(=O)CCN4CCCC4)ccc23)cc1 = 106
CC(C)(O)C1CCC(Nc2ccc3ncc(-c4cccc(C(F)(F)F)c4)n3n2)CC1 (stereo not drawn) + Cc1cnc(CNC(=O)c2c(=O)c3ccc(N4CCCN(C)CC4)nc3n3c2sc2ccccc23)cn1 = 25.8

Query (compound): Nc1ccn(C2OC(CO)C(O)C2(F)F)c(=O)n1 (stereo not drawn) + Cc1cnc(CNC(=O)c2c(=O)c3ccc(N4CCCN(C)CC4)nc3n3c2sc2ccccc23)cn1 ; field requested: viability, T/C
3.56

----------
The reader will find reported viability, T/C values listed item by item below.
system: 885512-296-R-J2-PDC complex spheroid viability; assay: Anticancer human tumor 885512-296-R-J2-PDC cell line growth inhibition [GQUAD]; conditions: second compound 0.1 µM; first compound 0.000999 µM; hits give low values;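 further: spheroids exposed to the compounds for one week; percent of tumor spheroid viability relative to DMSO vehicle control wells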
The reply should contain only the number, in %.

In the examples that follow, each entry is paired with its recorded viability, T/C.
Cc1[nH]c2ccccc2c1CCNCc1ccc(/C=C/C(=O)NO)cc1 + Cc1[nH]c2ccc(F)cc2c1-c1nc2c3cccnc3c3ncccc3c2[nH]1 = 99.7
Cn1ncnc1[C@H]1c2n[nH]c(=O)c3cc(F)cc(c23)N[C@@H]1c1ccc(F)cc1 + CN(C)c1ccc(Nc2c3ccc(NC(=O)CCN4CCCC4)cc3nc3cc(NC(=O)CCN4CCCC4)ccc23)cc1 = 112
Cc1[nH]c2ccccc2c1CCNCc1ccc(/C=C/C(=O)NO)cc1 + Cc1cnc(CNC(=O)c2c(=O)c3ccc(N4CCCN(C)CC4)nc3n3c2sc2ccccc23)cn1 = 52.9
Cn1ncnc1[C@H]1c2n[nH]c(=O)c3cc(F)cc(c23)N[C@@H]1c1ccc(F)cc1 + Cc1[nH]c2ccc(F)cc2c1-c1nc2c3cccnc3c3ncccc3c2[nH]1 = 104
CCc1c2c(nc3ccc(O)cc13)-c1cc3c(c(=O)n1C2)COC(=O)[C@]3(O)CC + Cc1cnc(CNC(=O)c2c(=O)c3ccc(N4CCCN(C)CC4)nc3n3c2sc2ccccc23)cn1 = 17

Query (molecule): CC[C@@]1(O)C(=O)OCc2c1cc1n(c2=O)Cc2cc3c(CN(C)C)c(O)ccc3nc2-1 + Cc1[nH]c2ccc(F)cc2c1-c1nc2c3cccnc3c3ncccc3c2[nH]1 ; field requested: viability, T/C
110

Query (molecule): CC[C@@]1(O)C(=O)OCc2c1cc1n(c2=O)Cc2cc3c(CN(C)C)c(O)ccc3nc2-1 + Cc1cnc(CNC(=O)c2c(=O)c3ccc(N4CCCN(C)CC4)nc3n3c2sc2ccccc23)cn1 ; field requested: viability, T/C
63.8

Query (molecule): CCc1c2c(nc3ccc(O)cc13)-c1cc3c(c(=O)n1C2)COC(=O)[C@]3(O)CC + CN(C)c1ccc(Nc2c3ccc(NC(=O)CCN4CCCC4)cc3nc3cc(NC(=O)CCN4CCCC4)ccc23)cc1 ; field requested: viability, T/C
15.7

Query (molecule): Cn1ncnc1[C@H]1c2n[nH]c(=O)c3cc(F)cc(c23)N[C@@H]1c1ccc(F)cc1 + Cc1cnc(CNC(=O)c2c(=O)c3ccc(N4CCCN(C)CC4)nc3n3c2sc2ccccc23)cn1 ; field requested: viability, T/C
51.7

----------
test system: 885512-296-R-J2-PDC complex spheroid viability; experiment: Anticancer human tumor 885512-296-R-J2-PDC cell line growth inhibition [GQUAD]; conditions: second compound 10 µM; first compound 1 µM; hits give low values;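 further: spheroids exposed to the compounds for one week; percent of tumor spheroid viability relative to DMSO vehicle control wells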
The reader will find reported viability, T/C values listed item by item below.
The reply should contain only the number, in %.

In the examples that follow, each entry is paired with its recorded viability, T/C.
CC(=O)O[C@H]1C(=O)[C@@]2(C)[C@H]([C@H](OC(=O)c3ccccc3)[C@]3(O)C[C@H](OC(=O)[C@H](O)[C@@H](NC(=O)c4ccccc4)c4ccccc4)C(C)=C1C3(C)C)[C@]1(OC(C)=O)CO[C@@H]1C[C@@H]2O + Cc1[nH]c2ccc(F)cc2c1-c1nc2c3cccnc3c3ncccc3c2[nH]1 = 0.21
CC(=O)O[C@H]1C(=O)[C@@]2(C)[C@H]([C@H](OC(=O)c3ccccc3)[C@]3(O)C[C@H](OC(=O)[C@H](O)[C@@H](NC(=O)c4ccccc4)c4ccccc4)C(C)=C1C3(C)C)[C@]1(OC(C)=O)CO[C@@H]1C[C@@H]2O + CN(C)c1ccc(Nc2c3ccc(NC(=O)CCN4CCCC4)cc3nc3cc(NC(=O)CCN4CCCC4)ccc23)cc1 = 4.93
COc1cccc2c1C(=O)c1c(O)c3c(c(O)c1C2=O)CC(O)(C(=O)CO)CC3OC1CC(N)C(O)C(C)O1 (centres undefined) + Cc1cnc(CNC(=O)c2c(=O)c3ccc(N4CCCN(C)CC4)nc3n3c2sc2ccccc23)cn1 = 0.15

Now examine the next entry.
Query (compound): CC1COCCN1c1cc(-c2ccnn2C)c2ccnc(-c3ccn[nH]3)c2n1 (centres undefined) + CN(C)c1ccc(Nc2c3ccc(NC(=O)CCN4CCCC4)cc3nc3cc(NC(=O)CCN4CCCC4)ccc23)cc1 ; field requested: viability, T/C
3.59

----------
tested on: 885512-296-R-J2-PDC complex spheroid viability; assay: Anticancer human tumor 885512-296-R-J2-PDC cell line growth inhibition [GQUAD]; details: second compound 3.16 µM; first compound 10 µM; hits give low values;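 further: spheroids exposed to the compounds for one week; percent of tumor spheroid viability relative to DMSO vehicle control wells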
metric: viability, T/C (%)
The reply should contain only the number, in %.

Query (molecule): CC(C)n1c(=O)n(C)c2cnc3cc(F)c(-c4ccc(OCCCN5CCCCC5)nc4)cc3c21 + Cc1[nH]c2ccc(F)cc2c1-c1nc2c3cccnc3c3ncccc3c2[nH]1 ; field requested: viability, T/C
1.66

Query (molecule): CC1COCCN1c1cc(C2(S(C)(=N)=O)CC2)nc(-c2ccnc3[nH]ccc23)n1 (stereo not drawn) + Cc1cnc(CNC(=O)c2c(=O)c3ccc(N4CCCN(C)CC4)nc3n3c2sc2ccccc23)cn1 ; field requested: viability, T/C
3.44

Query (molecule): COc1cccc2c1C(=O)c1c(O)c3c(c(O)c1C2=O)CC(O)(C(=O)CO)CC3OC1CC(N)C(O)C(C)O1 (stereo not drawn) + Cc1cnc(CNC(=O)c2c(=O)c3ccc(N4CCCN(C)CC4)nc3n3c2sc2ccccc23)cn1 ; field requested: viability, T/C
0.15

----------
Tested on: 885512-296-R-J2-PDC complex spheroid viability
Assay: Anticancer human tumor 885512-296-R-J2-PDC cell line growth inhibition [GQUAD]; active = viability on the fitted dose curve at most 10% of control; inactive = the rest;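 further: spheroids exposed to the compounds for one week; percent of tumor spheroid viability relative to DMSO vehicle control wells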
Details: second compound 3.16 µM; first compound 0.316 µM
Description: DNA G-quadruplex Stabilizer Agents in Combinations in Complex Spheroids A high-throughput screen of multi-cell type tumor spheroids was designed to identify active combinations of DNA G-quadruplex stabilizer agents and targeted small molecules. […] Compounds. […] If the clinical Cmax for an agent had not been determined, the highest concentration tested was 10 microM. […]
Returns: one label drawn from active, inactive

COc1ccc([C@@H](O)c2cc(-c3ncnc4cc(N5CCOCC5)ccc34)c(F)cc2Cl)nn1 + Cc1cnc(CNC(=O)c2c(=O)c3ccc(N4CCCN(C)CC4)nc3n3c2sc2ccccc23)cn1 = inactive

Hi, do you know how COc1cc(C2c3cc4c(cc3C(OC3OC5COC(C)OC5C(O)C3O)C3COC(=O)C23)OCO4)cc(OC)c1O (stereo not given) + CN(C)c1ccc(Nc2c3ccc(NC(=O)CCN4CCCC4)cc3nc3cc(NC(=O)CCN4CCCC4)ccc23)cc1 came out in this test?
inactive

Hi, do you know how CC1COCCN1c1cc(C2(O)CC3CCC(C2)O3)c2cnn(-c3ccn[nH]3)c2n1 (stereo not given) + Cc1[nH]c2ccc(F)cc2c1-c1nc2c3cccnc3c3ncccc3c2[nH]1 came out in this test?
active

Hi, do you know how C=CC(=O)N1CCN(c2nc(=O)n(-c3c(C)ccnc3C(C)C)c3nc(-c4c(O)cccc4F)c(F)cc23)C(C)C1 (stereo not given) + Cc1cnc(CNC(=O)c2c(=O)c3ccc(N4CCCN(C)CC4)nc3n3c2sc2ccccc23)cn1 came out in this test?
inactive

Hi, do you know how O=C(c1cc(Cc2n[nH]c(=O)c3ccccc23)ccc1F)N1CCN(C(=O)C2CC2)CC1 + Cc1cnc(CNC(=O)c2c(=O)c3ccc(N4CCCN(C)CC4)nc3n3c2sc2ccccc23)cn1 came out in this test?
inactive
